# Tested on: Rat fibroblasts (CREF)
# testName: Peg3 promoter luciferase inhibitors, potency, dose response, cell-based, HeLa, CREF/GAPDH counter-screen panel (AID 624167)
# conditions: CREF/GAPDH counter-screens, run 1, dose range 1, individual replicate IC50 per panel
parameter: pIC50
To interpret pIC50, take it as minus log10 of a concentration measured in moles per litre.

*Q* State the recorded pIC50 for this entry: Clc1ccccc1/C=C/c1nc(-c2ccccn2)no1
*A* 4.59

*Q* Also CCOc1ccc2c(ccc(/C=C/c3cc(C)c4cccnc4c3O)[n+]2C)c1 ?
*A* 4.92

More entries:
*Q* State the recorded pIC50 for this entry: O=[N+]([O-])c1ccc(S(=O)(=O)c2ccccc2)nc1
*A* 5.05

Measured values drawn from PubChem BioAssay AID624167 for this set.
